- subject of test: T1, CD27 expressed on the cell surface (HT1080_CD27 cells) (human, UniProt P26842 20-260)
- T1 construct: whole, on cells; also called K562_CD27
- T1 sequence (looked up): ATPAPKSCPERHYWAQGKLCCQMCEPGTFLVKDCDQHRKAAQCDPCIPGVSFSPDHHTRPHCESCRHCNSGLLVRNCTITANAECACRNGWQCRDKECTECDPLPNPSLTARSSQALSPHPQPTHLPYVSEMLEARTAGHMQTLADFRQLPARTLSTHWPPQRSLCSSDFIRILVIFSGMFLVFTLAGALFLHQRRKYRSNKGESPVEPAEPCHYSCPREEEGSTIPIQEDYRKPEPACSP
- protocol notes: cellular binding assay, HT1080_CD27 cells; note: test concentration or dose not given here
The reader will find reported Cellular binding assay [RFU] values listed item by item below.
Report the value in RFU with no unit label.

Query: Query (binder): P018.S.06.A.E01 (antibody, V domains shown, V regions on human Ig constant parts; also called AB27_104) VH: QSLEESGGRLVTPGTPLTLTCTASGFSLSSYYMTWVRQAPGEGLEWIGTISTAGNTYFASWVKGRFTISRTSTTVDLKMTSPTTEDTATYFCTRDGAGDSNYYRNLWGQGTLVTVSS VL: AIDMTQTPASVEAAVGGTVTIKCQASESIDRFLAWYQQKPGQPPKLLIVDASTLESGVPSRFSGSGSGTEFTLTISDLESDNAATYYCQQGYAISDIDNVFGGGTEVVVK ; field requested: Cellular binding assay [RFU]
Result: 354

Attention now turns to another entry.
Query: Query (binder): P018.S.10.A.G03 (antibody, V domains shown, V regions on human Ig constant parts; also called AB27_182) VH: QSVEESGGRLVTPGTPLTLTCTVSGFTISSYHMCWVRQAPGKGLQYIGIIGSNGNTYYASWAKSRSTITRNTNENTVTLKMTSLTTEDTATYFCARSSGWGARFNLWGQGTLVTVSS VL: AQVLTQTPSSVSAAVGGTVTINCQASQSVYNDNELSWYQQKPGQPPKLLIYKASTLTSGVPLRFSGSGSGTQFTLTISDVQSDDAATYYCLGGGSTPSDSTFGGGTEVVVK ; field requested: Cellular binding assay [RFU]
Result: 386
